What MIC was measured for each of the following?
# Tested on: S. faecalis ATCC 29212
# Assay summary: MIC assay, S. faecalis ATCC 29212
# Type: cell-based
# Settings: two-fold dilution in 96-well plates, MHB, 2-7 × 10^5 CFU/mL, 18–24 h, 37 °C
Where no end group is shown, it is not given here.
Form field: result (number plus unit)

WVKAAAKAAAKVW-NH2 [WV] = 64 µM
WWKAAAKAAAKWW-NH2 [WW] = 4 µM

Count: 2. Required value per item: MIC.
1. WFKAAAKAAAKFW-NH2 [WF]
2. WIKAAAKAAAKIW-NH2 [WI]

["32 µM", "32 µM"]
